B1: SLC35F2 (parent)
chain: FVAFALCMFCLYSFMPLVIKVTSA

variants of: B1; test: protein stability index of a GFP-peptide fusion (GPS, HEK-293T) (PSI 1-6); higher = more stable; settings: c terminus: a fixed tail appended;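 further: lentivirally expressed fusions sorted by FACS into six bins by GFP to DsRed ratio, PSI derived from sequencing read proportions per bin multiplied by bin number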
Listed next: entries and their corresponding protein stability index.

- variant-name: "L11C"
  protein stability index: 3.54
- variant-name: "C10D"
  protein stability index: 3.05
- variant-name: "C10K"
  protein stability index: 2.52
- variant-name: "M8F"
  protein stability index: 2.67
- variant-name: "A3P"
  protein stability index: 1.98
- variant-name: "T22G"
  protein stability index: 2.96
